- measurement notes: Metabolic stability in human liver microsomes, Method B8
- Assay type: in vitro ADME
- condition label: human liver microsomes 0.8 mg/mL, 5 μM compound, 37° C.
parameter: HLM, metabolic stability in human liver microsomes

The examples below pair each entry with its known result.
- molecule: "CC[C@@H]1CCc2ccc(F)cc2OCCN[C@@H](C(C)C)C(=O)N(C)[C@@H](C(C)O)C(=O)N[C@H](Cc2ccc(O)cc2)C(=O)N1 (stereo partly drawn) [Compound 1751]"
  result: "109.6 μL/min/mg protein"
- molecule: "CC[C@@H]1CCc2ccccc2OCCN[C@@H](C(C)C)C(=O)N(C)[C@@H](C(C)O)C(=O)N[C@H](Cc2ccccc2)C(=O)N1 (stereo partly drawn) [Compound 1393]"
  result: "46.6 μL/min/mg protein"

Name the recorded HLM, metabolic stability in human liver microsomes for CCC(C)C1NCCOc2ccc(F)cc2C=CCNC(=O)C(Cc2ccc(Cl)cc2)NC(=O)C(C(C)O)N(C)C1=O (stereo not drawn) [Compound 1740] .
28.3 μL/min/mg protein

Name the recorded HLM, metabolic stability in human liver microsomes for CC(O)[C@H]1C(=O)N[C@H](Cc2c[nH]c3ccccc23)C(=O)N[C@H](C)CCc2ccccc2OCCN[C@@H](C(C)(C)C)C(=O)N1C (stereo partly drawn) [Compound 1762] .
73.4 μL/min/mg protein

Name the recorded HLM, metabolic stability in human liver microsomes for CC(C)C1NCCOc2ccccc2C#CCNC(=O)C(Cc2cccc(F)c2)NC(=O)C(C(C)O)N(C)C1=O (stereo not drawn) [Compound 1691] .
53.7 μL/min/mg protein

Name the recorded HLM, metabolic stability in human liver microsomes for CC(O)[C@H]1C(=O)N[C@H](Cc2c[nH]c3ccccc23)C(=O)N[C@H](C)CCc2ccccc2OCCN[C@@H](C2CC2)C(=O)N1C (stereo partly drawn) [Compound 1745] .
117.0 μL/min/mg protein

Name the recorded HLM, metabolic stability in human liver microsomes for CC(O)[C@H]1C(=O)N[C@H](Cc2ccccc2)C(=O)NCC#Cc2ccc(F)cc2OCCN[C@@H](C2(C)CC2)C(=O)N1C (stereo partly drawn) [Compound 1918] .
14.3 μL/min/mg protein

Name the recorded HLM, metabolic stability in human liver microsomes for CC(O)[C@H]1C(=O)N[C@H](Cc2ccc(Cl)cc2)C(=O)N[C@H](C)CCc2ccccc2OCCN[C@@H](C(C)(C)C)C(=O)N1C (stereo partly drawn) [Compound 1742] .
157.4 μL/min/mg protein

Name the recorded HLM, metabolic stability in human liver microsomes for CC[C@@H]1C#Cc2c(F)cccc2OCCN[C@@H](C(C)C)C(=O)N(C)[C@@H](C(C)O)C(=O)N[C@H](Cc2c[nH]c3ccccc23)C(=O)N1 (stereo partly drawn) [Compound 1726] .
41.5 μL/min/mg protein

Name the recorded HLM, metabolic stability in human liver microsomes for CC[C@@H]1C#Cc2ccc(F)cc2OCCN[C@@H](C(C)C)C(=O)N(C)[C@@H](C(C)O)C(=O)N[C@H](Cc2c[nH]c3ccccc23)C(=O)N1 (stereo partly drawn) [Compound 1755] .
47.8 μL/min/mg protein

Name the recorded HLM, metabolic stability in human liver microsomes for CC(C)[C@@H]1NCCOc2ccccc2C2CCC(C2)NC(=O)[C@@H](Cc2ccc(F)cc2)NC(=O)[C@H](C(C)O)N(C)C1=O (stereo partly drawn) [Compound 1903] .
47.9 μL/min/mg protein

Name the recorded HLM, metabolic stability in human liver microsomes for CC[C@@H]1C#Cc2ccc(F)cc2OCCN[C@@H](C(C)C)C(=O)N(C)[C@@H](C(C)O)C(=O)N[C@H](Cc2cccc(F)c2)C(=O)N1 (stereo partly drawn) [Compound 1760] .
34.8 μL/min/mg protein
